target: RNA-directed RNA polymerase (Hepacivirus hominis, UniProt O39930); assay: Inhibitory concentration against RNA dependent RNA polymerase Nonstructural protein 5B of genotype 1a Hepatitis C virus
Sequence (O39930 whole entry): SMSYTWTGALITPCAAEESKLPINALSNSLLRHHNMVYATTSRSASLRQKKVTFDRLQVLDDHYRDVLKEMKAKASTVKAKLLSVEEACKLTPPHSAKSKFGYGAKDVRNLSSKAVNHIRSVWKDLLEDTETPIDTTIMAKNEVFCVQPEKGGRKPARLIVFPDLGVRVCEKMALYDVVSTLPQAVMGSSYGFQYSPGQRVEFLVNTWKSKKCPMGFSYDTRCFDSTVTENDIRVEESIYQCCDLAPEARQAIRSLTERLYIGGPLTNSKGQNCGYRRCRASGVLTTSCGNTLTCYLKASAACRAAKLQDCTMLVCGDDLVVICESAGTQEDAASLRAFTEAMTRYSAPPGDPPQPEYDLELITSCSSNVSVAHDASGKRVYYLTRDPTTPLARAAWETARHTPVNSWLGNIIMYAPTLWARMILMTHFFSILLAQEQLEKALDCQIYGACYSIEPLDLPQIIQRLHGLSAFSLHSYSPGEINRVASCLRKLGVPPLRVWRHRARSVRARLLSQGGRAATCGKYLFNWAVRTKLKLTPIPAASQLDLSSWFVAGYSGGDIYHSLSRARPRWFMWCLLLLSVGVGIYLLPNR
Quantity Kind: IC50 (nM)
Report only the number, with the unit nM understood.

// query Find the recorded IC50 belonging to CC(C)Nn1c(=O)c(C2=NS(=O)(=O)c3ccccc3N2)c(O)c2ccccc21 and report it.
// result 6350

// query What about O=c1c(C2=Nc3ccccc3S(=O)(=O)N2)c(O)c2ccccc2n1NCc1cccs1 ?
// result 2330

// query Further, for CC(C)CNn1c(=O)c(C2=NS(=O)(=O)c3ccccc3N2)c(O)c2ccccc21 ?
// result 941

// query And then CC(C)CCNn1c(=O)c(C2=Nc3ccccc3S(=O)(=O)N2)c(O)c2ccccc21 , what is it?
// result 629

// query Same question for O=c1c(C2=NS(=O)(=O)c3ccccc3N2)c(O)c2ccccc2n1NC1CCOCC1 please.
// result 4630

// query Please answer likewise for O=c1c(C2=Nc3ccccc3S(=O)(=O)N2)c(O)c2ccccc2n1NCc1nccs1
// result 35800

// query Another compound to check: CCC(CC)Nn1c(=O)c(C2=NS(=O)(=O)c3ccccc3N2)c(O)c2ccccc21
// result 2460

// query Now give it for O=c1c(C2=Nc3ccccc3S(=O)(=O)N2)c(O)c2ccccc2n1NCc1ccccc1Br too.
// result 6720

// query Let us now turn to O=c1c(C2=NS(=O)(=O)c3ccccc3N2)c(O)c2ccccc2n1NCc1ccc(Cl)s1
// result 4780

// query Please give the result for O=c1c(C2=Nc3ccccc3S(=O)(=O)N2)c(O)c2ccccc2n1NCc1ccoc1 too.
// result 1550

// query Now consider O=c1c(C2=NS(=O)(=O)c3ccccc3N2)c(O)c2ccccc2n1NCc1ccco1 .
// result 3260

// query Please do the same for CCCC(Nn1c(=O)c(C2=NS(=O)(=O)c3ccccc3N2)c(O)c2ccccc21)C(C)C (stereo unspecified) as well.
// result 6400

// query Try the compound O=c1c(C2=Nc3ccccc3S(=O)(=O)N2)c(O)c2ccccc2n1NCC1CCCCC1
// result 2530

// query // same read-out, input: CCCC(CCC)Nn1c(=O)c(C2=Nc3ccccc3S(=O)(=O)N2)c(O)c2ccccc21
// result 2240

// query Queued: O=c1c(C2=Nc3ccccc3S(=O)(=O)N2)c(O)c2ccccc2n1NCC1CCC1
// result 278

// query Likewise for CCCC(CC)Nn1c(=O)c(C2=Nc3ccccc3S(=O)(=O)N2)c(O)c2ccccc21 (stereo unspecified) ?
// result 1890

// query Field entry: Cc1ccccc1CNn1c(=O)c(C2=Nc3ccccc3S(=O)(=O)N2)c(O)c2ccccc21
// result 6120

// query Here is the next compound: O=c1c(C2=Nc3ccccc3S(=O)(=O)N2)c(O)c2ccccc2n1NCC1CCCC1
// result 747

// query Another compound to check: CC(Nn1c(=O)c(C2=Nc3ccccc3S(=O)(=O)N2)c(O)c2ccccc21)c1ccccc1 (stereo unspecified)
// result 16500

// query Please answer likewise for O=c1c(C2=Nc3ccccc3S(=O)(=O)N2)c(O)c2ccccc2n1NC1CCCCC1
// result 356

// query Could you do the same for Cc1ccsc1CNn1c(=O)c(C2=NS(=O)(=O)c3ccccc3N2)c(O)c2ccccc21 , please?
// result 15000

// query Can you check CC(C)(C)CCNn1c(=O)c(C2=NS(=O)(=O)c3ccccc3N2)c(O)c2ccccc21 next?
// result 411

// query What do you get for O=c1c(C2=NS(=O)(=O)c3ccccc3N2)c(O)c2ccccc2n1NCC1CC1 ?
// result 285

// query // same read-out, input: CCCCCNn1c(=O)c(C2=NS(=O)(=O)c3ccccc3N2)c(O)c2ccccc21
// result 928

// query Same thing, different compound: O=c1c(C2=Nc3ccccc3S(=O)(=O)N2)c(O)c2ccccc2n1NCc1ccccc1
// result 5090

// query Moving on to the next compound: CCCCNn1c(=O)c(C2=Nc3ccccc3S(=O)(=O)N2)c(O)c2ccccc21
// result 951

// query // repeat for O=c1c(C2=NS(=O)(=O)c3ccccc3N2)c(O)c2ccccc2n1NCc1cccc(Br)c1 and report
// result 1040

// query Param item: O=c1c(C2=Nc3ccccc3S(=O)(=O)N2)c(O)c2ccccc2n1NCc1ccc(Br)cc1
// result 10400

// query Next entry: Cc1cccc(CNn2c(=O)c(C3=NS(=O)(=O)c4ccccc4N3)c(O)c3ccccc32)c1
// result 8210

====

biological target: UniProt:O39930; experiment: Inhibitory concentration against RNA dependent RNA polymerase Nonstructural protein 5B of genotype 1b Hepatitis C virus
Kindly state log10(IC50) for each of the entries shown.
Note: values are log10 of IC50 expressed in nM.

// query Request the reported log10(IC50) associated with Cc1ccsc1CNn1c(=O)c(C2=NS(=O)(=O)c3ccccc3N2)c(O)c2ccccc21
// result 3.08

// query Follow-up item: CCCC(CC)Nn1c(=O)c(C2=Nc3ccccc3S(=O)(=O)N2)c(O)c2ccccc21 (centres undefined)
// result 2.59

// query What do you get for CC(Nn1c(=O)c(C2=Nc3ccccc3S(=O)(=O)N2)c(O)c2ccccc21)c1ccccc1 (centres undefined) ?
// result 3.17

// query Repeat for the following compound: CC(c1ccccc1)n1c(=O)c(C2=NS(=O)(=O)c3ccccc3N2)c(O)c2cccnc21 (centres undefined)
// result 3.67

// query Follow-up entry: CC(C)Nn1c(=O)c(C2=NS(=O)(=O)c3ccccc3N2)c(O)c2ccccc21
// result 2.81

// query Moving on to CCCCNn1c(=O)c(C2=Nc3ccccc3S(=O)(=O)N2)c(O)c2ccccc21
// result 2.21

// query Same question, O=c1c(C2=Nc3ccccc3S(=O)(=O)N2)c(O)c2ccccc2n1NC1CCCCC1 this time
// result 1.78

// query Same read-out for O=c1c(C2=Nc3ccccc3S(=O)(=O)N2)c(O)c2ccccc2n1NCC1CCCCC1 ?
// result 2.18

====

molecular target: UniProt:O39930; experiment: Inhibitory concentration against RNA dependent RNA polymerase Nonstructural protein 5B of genotype 1b Hepatitis C virus
Exercise: for every item that follows, state its recorded IC50.
Express your answer in nM, writing the number without its unit.

// query Any idea what IC50 was measured for O=c1c(C2=NS(=O)(=O)c3ccccc3N2)c(O)c2ccccc2n1NCC1CC1 ?
// result 145

// query // query: O=c1c(C2=Nc3ccccc3S(=O)(=O)N2)c(O)c2ccccc2n1NCC1CCC1
// result 108

// query Also check O=c1c(C2=NS(=O)(=O)c3ccccc3N2)c(O)c2ccccc2n1NCc1ccco1
// result 305

// query What about this compound? O=c1c(C2=Nc3ccccc3S(=O)(=O)N2)c(O)c2ccccc2n1NCc1ccoc1
// result 133

// query Can you handle O=c1c(C2=NS(=O)(=O)c3ccccc3N2)c(O)c2cccnc2n1OCc1ccccc1 next?
// result 58000

====

Give measured IC50 for each item. Keep answers brief.
target: RNA-directed RNA polymerase (Hepacivirus hominis, UniProt O39930); assay: Inhibitory concentration against RNA dependent RNA polymerase Nonstructural protein 5B of genotype 1b Hepatitis C virus
Answer with a number only, understood to be in nM.

// query Which measured IC50 value corresponds to CCCC(Nn1c(=O)c(C2=NS(=O)(=O)c3ccccc3N2)c(O)c2ccccc21)C(C)C (centres undefined) ?
// result 1130

// query Please give the result for O=c1c(C2=Nc3ccccc3S(=O)(=O)N2)c(O)c2ccccc2n1NCc1ccccc1 too.
// result 129

// query // next record O=c1c(C2=Nc3ccccc3S(=O)(=O)N2)c(O)c2ccccc2n1NCc1cccs1
// result 125

// query Same question, CC(C)CCn1c(=O)c(C2=NS(=O)(=O)c3ccccc3N2)c(O)c2cccnc21 this time
// result 69

// query Repeat for the following compound: CC(C)(C)CCNn1c(=O)c(C2=NS(=O)(=O)c3ccccc3N2)c(O)c2ccccc21
// result 135

// query And CCC(CC)Nn1c(=O)c(C2=NS(=O)(=O)c3ccccc3N2)c(O)c2ccccc21 ?
// result 120

// query Now consider O=c1c(C2=Nc3ccccc3S(=O)(=O)N2)c(O)c2ccccc2n1NCC1CCCC1 and answer again.
// result 150

// query Follow-up item: CC(C)CCNn1c(=O)c(C2=Nc3ccccc3S(=O)(=O)N2)c(O)c2ccccc21
// result 134

// query Try this compound too: O=c1c(C2=NS(=O)(=O)c3ccccc3N2)c(O)c2cccnc2n1C1CCCCC1
// result 50000

====

biological target: RNA-directed RNA polymerase (Hepacivirus hominis, UniProt O39930); experiment: Inhibitory concentration against RNA dependent RNA polymerase Nonstructural protein 5B of genotype 1b Hepatitis C virus
Assign pIC50 to each entry below.
Keep in mind that pIC50 stands for -log10 of concentration in molar terms.

// query Can you look up pIC50 on RNA-directed RNA polymerase (Hepacivirus hominis, UniProt O39930) for O=c1c(C2=Nc3ccccc3S(=O)(=O)N2)c(O)c2ccccc2n1NCc1ccccc1Br ?
// result 6.33

// query Repeat for the following compound: O=c1c(C2=NS(=O)(=O)c3ccccc3N2)c(O)c2ccccc2n1NCc1ccc(Cl)s1
// result 5.84

// query Now consider O=c1c(C2=NS(=O)(=O)c3ccccc3N2)c(O)c2ccccc2n1NCc1cccc(Br)c1 .
// result 7.12

// query Now give it for O=c1c(C2=NS(=O)(=O)c3ccccc3N2)c(O)c2cccnc2n1CCc1ccccc1 too.
// result 5.83

// query Now the same for Cc1ccccc1CNn1c(=O)c(C2=Nc3ccccc3S(=O)(=O)N2)c(O)c2ccccc21
// result 6.32

// query Moving on to O=c1c(C2=Nc3ccccc3S(=O)(=O)N2)c(O)c2ccccc2n1NCc1ccc(Br)cc1
// result 5.33

// query Entry O=c1c(C2=NS(=O)(=O)c3ccccc3N2)c(O)c2cccnc2n1CC1CCCCC1 please
// result 7.03

// query Now try CCCC(CCC)Nn1c(=O)c(C2=Nc3ccccc3S(=O)(=O)N2)c(O)c2ccccc21 .
// result 5.74

// query And what about the compound CCC(CC)n1c(=O)c(C2=NS(=O)(=O)c3ccccc3N2)c(O)c2cccnc21 ?
// result 4.88

// query Also O=c1c(C2=NS(=O)(=O)c3ccccc3N2)c(O)c2cccnc2n1Cc1ccccc1 , if possible.
// result 7.08

// query Try CC(C)CNn1c(=O)c(C2=NS(=O)(=O)c3ccccc3N2)c(O)c2ccccc21 next.
// result 7.00

// query What about CC(C)COn1c(=O)c(C2=Nc3ccccc3S(=O)(=O)N2)c(O)c2cccnc21 ?
// result 4.69

// query Now this one: O=c1c(C2=Nc3ccccc3S(=O)(=O)N2)c(O)c2ccccc2n1NCc1cccnc1
// result 6.66

// query One more compound: Cc1cccc(CNn2c(=O)c(C3=NS(=O)(=O)c4ccccc4N3)c(O)c3ccccc32)c1
// result 6.67

// query Further, for CCC(CC)Cn1c(=O)c(C2=NS(=O)(=O)c3ccccc3N2)c(O)c2cccnc21 ?
// result 7.24

// query Proceed to O=c1c(C2=Nc3ccccc3S(=O)(=O)N2)c(O)c2ccccc2n1NCc1nccs1
// result 6.17

// query Continue with O=c1c(C2=NS(=O)(=O)c3ccccc3N2)c(O)c2ccccc2n1NC1CCOCC1
// result 6.36
